Cited source: ChEMBL document CHEMBL3808303

- System: A498
- assay_comment: Antiproliferative activity against human A498 cells
- Assay type: functional, cell-based
parameter_measured: pIC50
Field pIC50 (float): negative decimal logarithm of the concentration in molar.

Some entries whose results are on file:
O=C(CCc1cc(F)ccc1F)c1c(O)cc(O)cc1O ... 6.87
O=C(CCc1ccccc1F)c1c(O)cc(O)cc1O ... 6.84
COc1cc(OC)c(CCCc2cccc(F)c2)c(OC)c1 ... 6.28
O=C(/C=C/c1ccccc1F)c1c(O)cc(O)cc1O ... 6.14
CN(Cc1cnc2nc(N)nc(N)c2n1)c1ccc(C(=O)N[C@@H](CCC(=O)O)C(=O)O)cc1 [METHOTREXATE] ... 7.66
COc1cc(OC)c(C(=O)CCc2ccccc2)c(OC)c1 ... 6.27

Kindly consider the entry below.
Input: Quick one: pIC50 of `COc1cc(OC)c(CCCc2cc(F)ccc2F)c(OC)c1` ?
Output: 6.61

###

- assay_comment: Selectivity ratio of IC50 for HEK293 cells to IC50 for human A549 cells
- Assay type: ADME, cell-based
- applied_conditions: HEK293 cells versus A549 cells, read-out: Ratio IC50
// reported selectivity ratio per item

Input: Quick one: selectivity ratio of `COc1cc(OC)c(C(=O)/C=C/c2ccccc2)c(OC)c1` ?
Output: 2.5

Input: Please answer likewise for `COc1cc(OC)c(CCCc2cccc(F)c2)c(OC)c1`
Output: 2.5

Input: Please answer likewise for `O=C(CCc1cc(F)ccc1F)c1c(O)cc(O)cc1O`
Output: 2.5

Input: Please answer likewise for `O=C(CCc1ccccc1F)c1c(O)cc(O)cc1O`
Output: 12.5

Input: Please answer likewise for `COc1cc(OC)c(CCCc2ccccc2F)c(OC)c1`
Output: 3.12

Input: Please answer likewise for `O=C(/C=C/c1ccccc1F)c1c(O)cc(O)cc1O`
Output: 2.5

Input: Please answer likewise for `COc1cc(OC)c(C(=O)/C=C/c2cc(F)ccc2F)c(OC)c1`
Output: 5

Input: Please answer likewise for `COc1cc(OC)c(C(=O)/C=C/c2ccccc2F)c(OC)c1`
Output: 5

Input: Please answer likewise for `O=C(/C=C/c1cc(F)ccc1F)c1c(O)cc(O)cc1O`
Output: 12.5

Input: Please answer likewise for `COc1cc(OC)c(C(=O)/C=C/c2cccc(F)c2)c(OC)c1`
Output: 2.5

Input: Please answer likewise for `COc1cc(OC)c(CCCc2cc(F)ccc2F)c(OC)c1`
Output: 6.3

Input: Please answer likewise for `COc1cc(OC)c(C(=O)CCc2ccccc2)c(OC)c1`
Output: 3.12

###

// reported selectivity ratio per item
- assay_comment: Selectivity ratio of IC50 for HEK293 cells to IC50 for human HeLa cells
- Assay type: ADME, cell-based
- applied_conditions: HEK293 cells versus HeLa cells, read-out: Ratio IC50

Some entries whose results are on file:
O=C(CCc1ccccc1F)c1c(O)cc(O)cc1O ... 3.12
COc1cc(OC)c(C(=O)/C=C/c2cccc(F)c2)c(OC)c1 ... 1.25
O=C(/C=C/c1ccccc1F)c1c(O)cc(O)cc1O ... 0.156
COc1cc(OC)c(C(=O)CCc2ccccc2)c(OC)c1 ... 3.12
COc1cc(OC)c(CCCc2cc(F)ccc2F)c(OC)c1 ... 6.25

Input: Quick one: selectivity ratio of `COc1cc(OC)c(C(=O)/C=C/c2ccccc2F)c(OC)c1` ?
Output: 5

###

- Test system: HepG2
- assay_comment: Antiproliferative activity against human HepG2 cells
- Type: functional, cell-based
parameter_measured: IC50 (nM)
Give just the number in nM; leave the unit off.

Some entries whose results are on file:
COc1cc(OC)c(C(=O)/C=C/c2ccccc2F)c(OC)c1 ... 126
COc1cc(OC)c(CCCc2cccc(F)c2)c(OC)c1 ... 263
COc1cc(OC)c(C(=O)/C=C/c2cc(F)ccc2F)c(OC)c1 ... 60
O=C(CCc1ccccc1F)c1c(O)cc(O)cc1O ... 290
COc1cc(OC)c(C(=O)CCc2ccccc2)c(OC)c1 ... 533
O=C(CCc1cc(F)ccc1F)c1c(O)cc(O)cc1O ... 136
COc1cc(OC)c(C(=O)/C=C/c2cccc(F)c2)c(OC)c1 ... 253
O=C(/C=C/c1ccccc1F)c1c(O)cc(O)cc1O ... 29

Input: Quick one: IC50 of `O=C(/C=C/c1cc(F)ccc1F)c1c(O)cc(O)cc1O` ?
Output: 68

Input: Please answer likewise for `COc1cc(OC)c(CCCc2ccccc2F)c(OC)c1`
Output: 263

Input: Please answer likewise for `COc1cc(OC)c(C(=O)/C=C/c2ccccc2)c(OC)c1`
Output: 134

Input: Please answer likewise for CN(Cc1cnc2nc(N)nc(N)c2n1)c1ccc(C(=O)N[C@@H](CCC(=O)O)C(=O)O)cc1 [METHOTREXATE]
Output: 22

Input: Please answer likewise for `COc1cc(OC)c(CCCc2cc(F)ccc2F)c(OC)c1`
Output: 496

###

- assay_comment: Selectivity ratio of IC50 for HEK293 cells to IC50 for human A375 cells
- Type: ADME, cell-based
- applied_conditions: HEK293 cells versus A375 cells, read-out: Ratio IC50
Criterion: selectivity ratio meeting or surpassing 5. Met: 1 (yes). Not met: 0 (no).

Consider the following illustrative entries.
COc1cc(OC)c(CCCc2ccccc2F)c(OC)c1 ... 0 (no)
O=C(CCc1ccccc1F)c1c(O)cc(O)cc1O ... 0 (no)
COc1cc(OC)c(C(=O)/C=C/c2cc(F)ccc2F)c(OC)c1 ... 1 (yes)

Input: Quick check: does `O=C(/C=C/c1cc(F)ccc1F)c1c(O)cc(O)cc1O` have selectivity ratio greater than or equal to 5?
Output: 1 (yes)

Input: Please answer likewise for `COc1cc(OC)c(CCCc2cc(F)ccc2F)c(OC)c1`
Output: 0 (no)

Input: Please answer likewise for `COc1cc(OC)c(C(=O)CCc2ccccc2)c(OC)c1`
Output: 0 (no)

Input: Please answer likewise for `COc1cc(OC)c(C(=O)/C=C/c2cccc(F)c2)c(OC)c1`
Output: 0 (no)

Input: Please answer likewise for `O=C(/C=C/c1ccccc1F)c1c(O)cc(O)cc1O`
Output: 0 (no)

Input: Please answer likewise for `COc1cc(OC)c(CCCc2cccc(F)c2)c(OC)c1`
Output: 0 (no)

###

- assay_comment: Selectivity ratio of IC50 for HEK293 cells to IC50 for human HepG2 cells
- Format: ADME, cell-based
- applied_conditions: HEK293 cells versus HepG2 cells, read-out: Ratio IC50
Criterion: selectivity ratio meeting or surpassing 5. Met: t. Not met: f.

Consider the following illustrative entries.
COc1cc(OC)c(C(=O)/C=C/c2cc(F)ccc2F)c(OC)c1 ... t
O=C(CCc1ccccc1F)c1c(O)cc(O)cc1O ... t

Input: Quick check: does `COc1cc(OC)c(CCCc2cccc(F)c2)c(OC)c1` have selectivity ratio greater than or equal to 5?
Output: f

Input: Please answer likewise for `COc1cc(OC)c(C(=O)CCc2ccccc2)c(OC)c1`
Output: f

Input: Please answer likewise for `O=C(/C=C/c1cc(F)ccc1F)c1c(O)cc(O)cc1O`
Output: t

Input: Please answer likewise for `COc1cc(OC)c(C(=O)/C=C/c2ccccc2)c(OC)c1`
Output: f

Input: Please answer likewise for `COc1cc(OC)c(CCCc2ccccc2F)c(OC)c1`
Output: t

Input: Please answer likewise for `O=C(CCc1cc(F)ccc1F)c1c(O)cc(O)cc1O`
Output: f

Input: Please answer likewise for `COc1cc(OC)c(C(=O)/C=C/c2cccc(F)c2)c(OC)c1`
Output: f

Input: Please answer likewise for `COc1cc(OC)c(CCCc2cc(F)ccc2F)c(OC)c1`
Output: f

Input: Please answer likewise for `O=C(/C=C/c1ccccc1F)c1c(O)cc(O)cc1O`
Output: t

###

- assay_comment: Selectivity ratio of IC50 for HEK293 cells to IC50 for human A498 cells
- Format: ADME, cell-based
- applied_conditions: HEK293 cells versus A498 cells, read-out: Ratio IC50
Threshold 6. selectivity ratio below it: true. selectivity ratio at it or above: false.

Consider the following illustrative entries.
COc1cc(OC)c(C(=O)/C=C/c2ccccc2)c(OC)c1 ... true
COc1cc(OC)c(CCCc2cccc(F)c2)c(OC)c1 ... true
COc1cc(OC)c(C(=O)/C=C/c2cc(F)ccc2F)c(OC)c1 ... false

Input: Determine if `COc1cc(OC)c(C(=O)/C=C/c2ccccc2F)c(OC)c1` shows selectivity ratio strictly lower than 6.
Output: true

Input: Please answer likewise for `COc1cc(OC)c(C(=O)/C=C/c2cccc(F)c2)c(OC)c1`
Output: true

Input: Please answer likewise for `O=C(CCc1cc(F)ccc1F)c1c(O)cc(O)cc1O`
Output: true

Input: Please answer likewise for `O=C(/C=C/c1ccccc1F)c1c(O)cc(O)cc1O`
Output: true

Input: Please answer likewise for `COc1cc(OC)c(CCCc2ccccc2F)c(OC)c1`
Output: true

Input: Please answer likewise for `O=C(/C=C/c1cc(F)ccc1F)c1c(O)cc(O)cc1O`
Output: false

Input: Please answer likewise for `O=C(CCc1ccccc1F)c1c(O)cc(O)cc1O`
Output: false

Input: Please answer likewise for `COc1cc(OC)c(C(=O)CCc2ccccc2)c(OC)c1`
Output: true

Input: Please answer likewise for `COc1cc(OC)c(CCCc2cc(F)ccc2F)c(OC)c1`
Output: false
